Assay: Serum pharmacokinetics of Ethinylestradiol and Gestodene during two patch treatment cycles
Parameters: species or system women
Settings: female, human, in vivo, topical or ocular, 0.9 mg, AUC(0-[…]) of ethinyl estradiol (EE), mean, Cycle 2, Week 1, test patch
Quantity Name: AUC(0-t)
// unit must come after the numeric part

Quick note, AUC(0-t) for C#C[C@]1(O)CC[C@H]2[C@@H]3CCc4cc(O)ccc4[C@H]3CC[C@@]21C landed at 5.1 ng·h/mL

----------
Assay: Serum pharmacokinetics of Ethinylestradiol and Gestodene during two patch treatment cycles
Design: species or system women
Settings: female, human, in vivo, topical or ocular, 0.9 mg, AUC(0-[…]) of ethinyl estradiol (EE), mean, Cycle 1, Week 3, test patch
Quantity Name: AUC(0-t) (ng·h/mL)
Answer with a number only, understood to be in ng·h/mL.

Record C#C[C@]1(O)CC[C@H]2[C@@H]3CCc4cc(O)ccc4[C@H]3CC[C@@]21C . Reported AUC(0-t): 6.1

----------
Assay: Serum pharmacokinetics of Ethinylestradiol and Gestodene during two patch treatment cycles
Parameters: species or system women
Settings: female, human, in vivo, topical or ocular, 0.9 mg, AUC(0-[…]) of ethinyl estradiol (EE), mean, Cycle 1, Week 1, test patch
Quantity Name: AUC(0-t) (ng·h/mL)
Write down the numeric answer in ng·h/mL and omit the unit.

Entry C#C[C@]1(O)CC[C@H]2[C@@H]3CCc4cc(O)ccc4[C@H]3CC[C@@]21C ; AUC(0-t) = 5.3
